# protocol.text: Solubility testing of peptides at different pH
# Format: physicochemical
# recorded.conditions: 50 mM phosphate buffer pH 7.4; target concentration 1 mg/ml; 2 hours agitation; read-out: Solubility Buffer pH 7.4
Starred links: 1 amine or outer side, 2 acyl side, 3 side chain; linkers in the order of their positions; H or OH if unused. Positions of bridges follow the written chain, without caps; N, C: chain ends. Non-standard residues stand in square brackets, D forms with d. Residues, ends and D or L forms follow the SMILES beside them. *: point of attachment. X3 = CN(CCCCC(=O)N[C@@H](CS[*:2])C(=O)[*:1])[*:3]; Trp(7-Me) = Cc1cccc2c(C[C@H](N)C(=O)O)c[nH]c12; 2Nal = N[C@@H](Cc1ccc2ccccc2c1)C(=O)O; AEF = NCCOc1ccc(C[C@H](N)C(=O)O)cc1; 3Pal = N[C@@H](Cc1cccnc1)C(=O)O; Thp = NC1(C(=O)O)CCOCC1; Me2NCH2CH2 = CN(C)CC*; Aib = CC(C)(N)C(=O)O; Ava = NCCCCC(=O)O; Sar = CNCC(=O)O
Reported solubility at 2 h by item:
outcome.measure: solubility at 2 h

INSERT INTO assay_data (compound, outcome_measure, obs_value) VALUES
  ('CC(=O)NCCCC[C@@H]1NC(=O)[C@H](Cc2c[nH]c3c(C)cccc23)NC(=O)[C@H]([C@@H](C)O)NC(=O)[C@H](CC(N)=O)NC(=O)[C@@H]2CSSC[C@H](NC1=O)C(=O)N[C@@H](Cc1ccc(OCCN(C)C)cc1)C(=O)N[C@@H](Cc1ccc3ccccc3c1)C(=O)NC1(CCOCC1)C(=O)N[C@H](C(=O)N[C@@H](CO)C(=O)N[C@@H](Cc1cccnc1)C(=O)N(C)CC(N)=O)CCC(=O)NCCCCC(=O)N2 [compound 56] ([Ava]CNT[Trp(7-Me)]K(Ac)CY(Me2NCH2CH2)[2Nal][Thp]ES[3Pal][Sar]-NH2; disulfide 2-7; lactam N-11)', 'solubility at 2 h', '≥ 1030 µg/mL'),
  ('COc1ccc(C[C@@H]2NC(=O)[C@@H]3CSSC[C@H](NC(=O)CCCCNC(=O)CC[C@@H](C(=O)N[C@@H](CC(N)=O)C(=O)N[C@@H](CC(N)=O)C(N)=O)NC(=O)C(C)(C)NC(=O)[C@H](Cc4ccc5ccccc5c4)NC2=O)C(=O)N[C@@H](CC(N)=O)C(=O)N[C@@H]([C@@H](C)O)C(=O)N[C@@H](Cc2c[nH]c4ccccc24)C(=O)N[C@@H](CCC(N)=O)C(=O)N3)cc1 [compound 1] ([Ava]CNTWQCY(Me)[2Nal][Aib]ENN-NH2; disulfide 2-7; lactam N-11)', 'solubility at 2 h', '< 50 µg/mL'),
  ('CC(=O)NCCCC[C@@H]1NC(=O)[C@H](Cc2c[nH]c3c(C)cccc23)NC(=O)[C@@H](NC(C)=O)CCCCNC(=O)[C@@H]2CSSC[C@H](NC1=O)C(=O)N[C@@H](Cc1ccc(OCCN(C)C)cc1)C(=O)N[C@@H](Cc1ccc3ccccc3c1)C(=O)NC1(CCOCC1)C(=O)N[C@H](C(=O)N[C@@H](CC(N)=O)C(=O)N[C@@H](Cc1cccnc1)C(=O)N(C)CC(N)=O)CCCCN(C)CCCCN2C', 'solubility at 2 h', '≥ 1120 µg/mL'),
  ('COc1ccc(C[C@@H]2NC(=O)[C@@H]3CSSC[C@H](NC(=O)CCC(=O)NCCCC[C@@H](C(=O)N[C@@H](CC(N)=O)C(=O)N[C@@H](CC(N)=O)C(N)=O)NC(=O)C(C)(C)NC(=O)[C@H](Cc4ccc5ccccc5c4)NC2=O)C(=O)N[C@@H](CC(N)=O)C(=O)N[C@@H]([C@@H](C)O)C(=O)N[C@@H](Cc2c[nH]c4ccccc24)C(=O)N[C@@H](CCC(N)=O)C(=O)N3)cc1', 'solubility at 2 h', '90 µg/mL'),
  ('CC(=O)N[C@H]1CCCCNC(=O)[C@@H]2CSSC[C@H](NC(=O)[C@H](CCC(N)=O)NC(=O)[C@H](Cc3c[nH]c4ccccc34)NC1=O)C(=O)N[C@@H](Cc1ccc(OCCN)cc1)C(=O)N[C@@H](Cc1ccc3ccccc3c1)C(=O)NC(C)(C)C(=O)N[C@H](C(=O)N[C@@H](CC(N)=O)C(=O)NCC(N)=O)CCC(=O)N(C)CCCCC(=O)N2 [compound 15] (Ac-KWQC[AEF][2Nal][Aib]ENG-NH2; linker 1-4-8 via X3)', 'solubility at 2 h', '≥ 910 µg/mL');

The reported measurements were obtained from patent US20260258084A1.
